Measured EC50 accompanies every entry in the list below.
test system: NCI H69; test: XTT proliferation test, NCI H69; type: cell-based; settings: Homo sapiens, cell line NCIH69 (lung), non-resistant
State just the number; it will be interpreted in nM.

> print(dat)
                                   molecule  recorded.value
1  Cc1cc(-c2ccc3ncc(NC(=S)NC4CC4)nc3c2)cc(C)c1O [Compound 23]               4

So what does the record say about EC50 for CCNC(=S)Nc1cnc2ccc(-c3cc(C)c(O)c(C)c3)cc2n1 [Compound 22] ?
10

So what does the record say about EC50 for Cc1cc(-c2ccc3ncc(NC(=O)NC(C)C)nc3c2)cc(C)c1O [Compound 17] ?
27

---

RESULT_TYPE: melting point

Here are 5 compounds together with their reported answers.
> print(dat)
                                  structure    result.type  recorded.value
1  Cc1cc(-c2ccc3ncc(NC(=O)Nc4ccc(Cl)c(Cl)c4)nc3c2)cc(C)c1O  melting point        > 300 °C
2  O=C(Nc1cnc2ccc(-c3cc(Cl)c(O)c(Cl)c3)cc2n1)NC1CCCCCCC1  melting point   258 to 260 °C
3  COc1ccc(NC(=O)Nc2cnc3ccc(-c4cc(C)c(O)c(C)c4)cc3n2)cc1  melting point        > 300 °C
4  CCCCCNC(=O)Nc1cnc2ccc(-c3cc(Cl)c(O)c(Cl)c3)cc2n1  melting point   297 to 298 °C
5  CC(C)NC(=O)Nc1cnc2ccc(-c3ccc(O)c(Cl)c3)cc2n1  melting point   275 to 277 °C

So what does the record say about melting point for Cc1cc(-c2ccc3ncc(NC(=O)N[C@@H](C)C(C)C)nc3c2)cc(C)c1O ?
267 °C

So what does the record say about melting point for CCNC(=S)Nc1cnc2ccc(-c3cc(C)c(O)c(C)c3)cc2n1 ?
243 to 244 °C

So what does the record say about melting point for CCCNC(=S)Nc1cnc2ccc(-c3cc(Cl)c(O)c(Cl)c3)cc2n1 ?
237 to 239 °C

---

Measured EC50 accompanies every entry in the list below.
tested on: MESSA DX5; assay: XTT proliferation test, doxorubicin-resistant MESSA Dx5; type: cell-based; conditions: Homo sapiens, MES-SA/Dx5, doxorubicin-resistant cell line MESSA Dx5 (uterus)
State just the number; it will be interpreted in nM.

> print(dat)
                                   compound  result.type  recorded.value
1  CCNC(=S)Nc1cnc2ccc(-c3cc(C)c(O)c(C)c3)cc2n1 [Compound 22]         EC50              38
2  Cc1cc(-c2ccc3ncc(NC(=S)NC4CC4)nc3c2)cc(C)c1O [Compound 23]         EC50              16

Attention now turns to another entry.
So what does the record say about EC50 for Cc1cc(-c2ccc3ncc(NC(=O)NC(C)C)nc3c2)cc(C)c1O [Compound 17] ?
139

---

tested on: MOLT-3; assay: Proliferation assay (Alamar Blue / XTT), MOLT-3; format: cell-based; settings: Homo sapiens; cell line MOLT-3 (leukaemia)
RESULT_TYPE: EC50 (nM)
State just the number; it will be interpreted in nM.

So what does the record say about EC50 for Cc1cc(-c2ccc3ncc(NC(=O)NC(C)C)nc3c2)cc(C)c1O ?
36

---

test system: RKOP27; test: Proliferation assay (Alamar Blue / XTT), RKOP27; type: cell-based; conditions: Homo sapiens; cell line RKOp27 (colon)
RESULT_TYPE: EC50
Please answer in the form of a number followed by its unit of measurement.

> print(dat)
                                  structure  result.type  recorded.value
1  Cc1cc(-c2ccc3ncc(NC(=S)NC4CCC4)nc3c2)cc(C)c1O         EC50           58 nM
2  CCNC(=S)Nc1cnc2ccc(-c3cc(C)c(O)c(C)c3)cc2n1         EC50           28 nM
3  Cc1cc(-c2ccc3ncc(NC(=O)NC(C)(C)C)nc3c2)cc(C)c1O         EC50          176 nM
4  Cc1cc(-c2ccc3ncc(NC(=S)NC4CC4)nc3c2)cc(C)c1O         EC50           20 nM

Attention now turns to another entry.
So what does the record say about EC50 for Cc1cc(-c2ccc3ncc(NC(=O)NC(C)C)nc3c2)cc(C)c1O ?
26 nM

---

system: TMM; test: Proliferation assay (Alamar Blue / XTT), TMM; assay type: cell-based; settings: Homo sapiens; cell line TMM (leukaemia)
RESULT_TYPE: pEC50
Keep it numeric: pEC50 is minus log10 of the concentration in mol/L.

So what does the record say about pEC50 for Cc1cc(-c2ccc3ncc(NC(=O)NC(C)C)nc3c2)cc(C)c1O [Compound 17] ?
7.49

---

Measured melting point accompanies every entry in the list below.

> print(dat)
                                   compound    result.type  recorded.value
1  Oc1c(Cl)cc(-c2ccc3ncc(NC(=S)NCc4ccccc4)nc3c2)cc1Cl [Compound 94]  melting point   275 to 277 °C
2  Oc1c(Cl)cc(-c2ccc3ncc(NC(=S)NCCc4ccccc4)nc3c2)cc1Cl [Compound 97]  melting point   282 to 285 °C
3  CCCCCNC(=O)Nc1cnc2ccc(-c3cc(C)c(O)c(C)c3)cc2n1 [Compound 33]  melting point   274 to 275 °C
4  O=C(NCCCc1ccccc1)Nc1cnc2ccc(-c3cc(Cl)c(O)c(Cl)c3)cc2n1 [Compound 84]  melting point   271 to 274 °C
5  Cc1cc(-c2ccc3ncc(NC(=S)NC(C)(C)C)nc3c2)cc(C)c1O [Compound 25]  melting point   238 to 240 °C

So what does the record say about melting point for O=C(Nc1ccccc1)Nc1cnc2ccc(-c3cc(Cl)c(O)c(Cl)c3)cc2n1 [Compound 86] ?
> 300 °C

So what does the record say about melting point for CC(C)NC(=O)Nc1cnc2ccc(-c3cc(Cl)c(O)c(Cl)c3)cc2n1 [Compound 76] ?
298 to 300 °C

So what does the record say about melting point for CCCCCCCNC(=O)Nc1cnc2ccc(-c3cc(Cl)c(O)c(Cl)c3)cc2n1 [Compound 75] ?
289 to 291 °C

---

system: NCI-H460; assay: Proliferation assay (Alamar Blue / XTT), NCI-H460; assay type: cell-based; settings: Homo sapiens; cell line NCI-H460 (lung)
RESULT_TYPE: pEC50
Keep it numeric: pEC50 is minus log10 of the concentration in mol/L.

> print(dat)
                                  structure  result.type  recorded.value
1  C=CCNC(=O)Nc1cnc2ccc(-c3cc(C)c(O)c(C)c3)cc2n1        pEC50            6.66

So what does the record say about pEC50 for Cc1cc(-c2ccc3ncc(NC(=S)NC4CCC4)nc3c2)cc(C)c1O ?
7.28

So what does the record say about pEC50 for CCNC(=S)Nc1cnc2ccc(-c3cc(C)c(O)c(C)c3)cc2n1 ?
7.57

So what does the record say about pEC50 for Cc1cc(-c2ccc3ncc(NC(=S)NC4CC4)nc3c2)cc(C)c1O ?
7.68

So what does the record say about pEC50 for CCCNC(=O)Nc1cnc2ccc(-c3cc(C)c(O)c(C)c3)cc2n1 ?
7.19

---

tested on: HSB-2; assay: Proliferation assay (Alamar Blue / XTT), HSB-2; type: cell-based; details: Homo sapiens, HSB2; cell line HSB-2 (leukaemia)
RESULT_TYPE: EC50 (nM)
State just the number; it will be interpreted in nM.

# value lookup — system HSB-2, readout EC50, item Cc1cc(-c2ccc3ncc(NC(=O)NC(C)C)nc3c2)cc(C)c1O
37

---

RESULT_TYPE: melting point

Here are 2 compounds together with their reported answers.
> print(dat)
                                  structure  recorded.value
1  CCCCNC(=S)Nc1cnc2ccc(-c3cc(Cl)c(O)c(Cl)c3)cc2n1   226 to 227 °C
2  CCCCNC(=O)Nc1cnc2ccc(-c3cc(Cl)c(O)c(Cl)c3)cc2n1   297 to 298 °C

Attention now turns to another entry.
So what does the record say about melting point for CCNC(=O)Nc1cnc2ccc(-c3cc(Cl)c(O)c(Cl)c3)cc2n1 ?
295 to 296 °C

---

Measured melting point accompanies every entry in the list below.

> print(dat)
                                  structure  recorded.value
1  Cc1cc(-c2ccc3ncc(NC(=S)NC4CCCC4)nc3c2)cc(C)c1O   271 to 272 °C
2  CCCCNC(=S)Nc1cnc2ccc(-c3cc(C)c(O)c(C)c3)cc2n1   278 to 280 °C

Attention now turns to another entry.
So what does the record say about melting point for O=C(Nc1cnc2ccc(-c3cc(Cl)c(O)c(Cl)c3)cc2n1)NC1CCCCCC1 ?
283 to 286 °C
